// provenance: BindingDB's records for doi:10.1021/acschembio.6b01129

# test system: Oplophorus-luciferin 2-monooxygenase catalytic subunit (Oplophorus gracilirostris)
# Sequence (Q9GV45 whole entry): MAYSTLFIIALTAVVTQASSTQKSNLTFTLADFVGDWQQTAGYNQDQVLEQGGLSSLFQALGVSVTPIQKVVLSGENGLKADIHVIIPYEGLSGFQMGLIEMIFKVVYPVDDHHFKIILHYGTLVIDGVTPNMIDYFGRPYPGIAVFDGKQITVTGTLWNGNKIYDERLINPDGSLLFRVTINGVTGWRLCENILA
# assay info: NanoLuc Inhibition Assay
pIC50: −log10 of the molar value.
endpoint name: pIC50

CCN(C(=O)Cn1cccc1C(=O)N[C@H]1CC[C@H](C(=O)OC)CC1)c1cccc(C)c1
5.11
CCc1cccc(N(CC)C(=O)Cn2c(C(=O)N[C@H]3CC[C@H](C(=O)OC)CC3)cc3ccccc32)c1
8.27
CCN(C(=O)Cn1c(C(=O)N[C@H]2CC[C@H](C(=O)OC)CC2)cc2ccccc21)c1cccc(C)c1
7.44
CCN(C(=O)Cn1c(C(=O)NC2CCC(C(=O)NCCCCCCO)CC2)cc2sccc21)c1cccc(C)c1 (stereo not drawn)
7.52

(1) CCN(C(=O)Cn1c(C(=O)N2CCCC2)cc2sccc21)c1cccc(C)c1
(2) CCCCNC(=O)C1CCC(NC(=O)c2cc3sccc3n2CC(=O)N(CC)c2cccc(C)c2)CC1 (stereo not drawn)
(3) CCN(C(=O)Cn1c(C(=O)NC2CCC(C(=O)NCCCCCCN)CC2)cc2sccc21)c1cccc(C)c1 (stereo not drawn)
(4) CCN(C(=O)Cn1c(C(=O)N[C@H]2CC[C@H](C(=O)OC)CC2)cc2sccc21)c1cccc(C)c1
# ascending order, key=pIC50 Your reply should list the labels following the order given in the request.
1, 2, 4, 3
